assay: Absorption-maximum wavelength λmax, molar extinction coefficient ε and solution colour in each solvent; type: physicochemical; settings: tetradecane
recorded-endpoint: Absorption-maximum wavelength
The reply should read as a number followed by its unit.

Here is how some compounds turned out for Absorption-maximum wavelength.
CCCCC(CC)CN(CC(CC)CCCC)c1ccc(/N=N/c2sc(N=Nc3ccc(C(=O)OCC(C)C)cc3)cc2C#N)c(C(C)C)c1 (stereo not drawn)
640 nm
CCCCC(CC)CN(CC(CC)CCCC)c1cc(NC(C)=O)c(/N=N/c2nc(Cl)c(C=O)s2)cc1OC (stereo not drawn)
618 nm
CCCCC(CC)CNc1ccc(NCC(CC)CCCC)c2c1C(=O)c1ccccc1C2=O (stereo not drawn) [Comparative example compound 1, reference compound]
651 nm
CCCCc1ccc(N=Nc2cc(C#N)c(N=Nc3cc(OC)c(N(CC(CC)CCCC)CC(CC)CCCC)cc3NC(C)=O)s2)cc1 (stereo not drawn)
669 nm
CCCCC(CC)COC(=O)c1ccc(N=Nc2cc(C#N)c(N=Nc3ccc(N(CC(CC)CCCC)CC(CC)CCCC)cc3C)s2)cc1 (stereo not drawn)
635 nm

Next up:
Find the recorded Absorption-maximum wavelength belonging to CCCCC(CC)CN(CC(CC)CCCC)c1ccc(N=Nc2sc(N=Nc3ccc(C(=O)OCC(C)C)cc3)cc2C#N)c(CC)c1 (stereo not drawn) and report it.
637 nm

====

assay: Solubility C (saturated concentration at 5° C.) of compound in low-polarity solvent and product εC; assay type: physicochemical; details: in n-decane, at 5° C.
Strictly below 100 mM in Solubility: Satisfied. Otherwise: Not satisfied.

Example entries and their recorded answers appear below.
CCCCc1ccc(N=Nc2cc(C#N)c(N=Nc3cc(OC)c(N(CC(CC)CCCC)CC(CC)CCCC)cc3C)s2)cc1 (stereo not shown)
Not satisfied
CCCCC(CC)COC(=O)c1ccc(N=Nc2cc(C#N)c(N=Nc3ccc(N(CC(CC)CCCC)CC(CC)CCCC)cc3C)s2)cc1 (stereo not shown)
Not satisfied
CCCCOc1ccc(N=Nc2sc(N=Nc3ccc(N(CC(CC)CCCC)CC(CC)CCCC)cc3Cl)nc2C)cc1 (stereo not shown)
Not satisfied
CCCCC(CC)CN(CC(CC)CCCC)c1ccc(N=Nc2sc(N=Nc3ccc(C(=O)OCC(C)C)cc3)cc2C#N)c(CC)c1 (stereo not shown)
Satisfied
CCCCc1ccc(N=Nc2cc(C#N)c(N=Nc3cc(OC)c(N(CC(CC)CCCC)CC(CC)CCCC)cc3NC(C)=O)s2)cc1 (stereo not shown)
Not satisfied

Take the compound CCCCC(CC)CN(CC(CC)CCCC)c1ccc(N=Nc2sc(C=C(C#N)C#N)c(Cl)c2C#N)c(NC(=O)C(CC)CCCC)c1 (stereo not shown) and say whether its Solubility is less than 100 mM.
Satisfied

Lab note: confirm whether the reported Solubility for this compound is below 100 mM, equality not counting. compound: CCCCC(CC)COC(=O)C(C#N)=Cc1sc(N=Nc2cc(OC)c(N(CC(CC)CCCC)CC(CC)CCCC)cc2NC(C)=O)nc1Cl (stereo not shown)
Satisfied

====

test: Absorption-maximum wavelength λmax, molar extinction coefficient ε and solution colour in each solvent; type: physicochemical; conditions: Isopar M, at absorption-maximum wavelength
recorded-endpoint: ε (L/mol/cm)
Entry rule: numbers only, all in L/mol/cm.

CCCCC(CC)COC(=O)C(C#N)=Cc1sc(N=Nc2cc(OC)c(N(CC(CC)CCCC)CC(CC)CCCC)cc2NC(C)=O)nc1Cl (stereo not drawn) [Compound 10]
54000

Entry C=CCn1c(N=Nc2ccc(N(CCC)CCC)cc2NC(C)=O)nc(C#N)c1C#N [Comparative example compound 2, reference compound] : reported ε = ?
39000

Could you share which ε value was measured for CCCCC(CC)COC(=O)c1ccc(N=Nc2cc(C#N)c(N=Nc3ccc(N(CC(CC)CCCC)CC(CC)CCCC)cc3C)s2)cc1 (stereo not drawn) [Compound 6] ?
65000

====

Assay: Solubility C (saturated concentration at 5° C.) of compound in low-polarity solvent and product εC
Type: physicochemical
Details: tetradecane, C at 5° C.
Description: The solubility C of each compound in each solvent was measured as follows. Each compound was added to each solvent until a dissolution residue came to remain, and the mixture was subjected to an ultrasonic treatment for 30 minutes at 30° C. […] Moreover, the value of the product of the molar extinction coefficient ε (L·mol^−1·cm^−1) and the solubility C (mol·L^−1), εC, was determined. […]
recorded-endpoint: ε · C (cm⁻¹)
Just the number in cm⁻¹, nothing appended.

CCCCC(CC)COC(=O)c1ccc(N=Nc2cc(C#N)c(N=Nc3ccc(N(CC(CC)CCCC)CC(CC)CCCC)cc3NC(C)=O)s2)cc1 (stereo not drawn) [Compound 8]
3500

Now take the following molecule into account.
Which ε · C is listed for CCCCC(CC)CNc1ccc(NCC(CC)CCCC)c2c1C(=O)c1ccccc1C2=O (stereo not drawn) [Comparative example compound 1, reference compound] ?
1600

====

test: Solubility C (saturated concentration at 5° C.) of compound in low-polarity solvent and product εC; format: physicochemical; conditions: n-decane, C at 5° C.
Binned ε · C; ranges: group 1: < 2000 cm⁻¹; group 2: ≥ 2000 cm⁻¹ and < 6000 cm⁻¹; group 3: ≥ 6000 cm⁻¹

Below are worked cases with known answers.
CCCCC(CC)CN(CC(CC)CCCC)c1ccc(N=Nc2sc(N=Nc3ccc(C(=O)OCC(C)C)cc3)cc2C#N)c(CC)c1 (stereo not shown)
group 1
CCCCOc1ccc(N=Nc2sc(N=Nc3ccc(N(CC(CC)CCCC)CC(CC)CCCC)cc3Cl)nc2C)cc1 (stereo not shown)
group 3
CCCCC(CC)CN(CC(CC)CCCC)c1ccc(N=Nc2sc(C=C(C#N)C#N)c(Cl)c2C#N)c(NC(=O)C(CC)CCCC)c1 (stereo not shown)
group 2
CCCCC(CC)COC(=O)C(C#N)=Cc1sc(N=Nc2cc(OC)c(N(CC(CC)CCCC)CC(CC)CCCC)cc2NC(C)=O)nc1Cl (stereo not shown)
group 2
CCCCc1ccc(N=Nc2cc(C#N)c(/N=N/c3ccc(N(CC(CC)CCCC)CC(CC)CCCC)cc3C)s2)cc1 (stereo not shown)
group 1
CCCCc1ccc(N=Nc2cc(C#N)c(N=Nc3cc(OC)c(N(CC(CC)CCCC)CC(CC)CCCC)cc3C)s2)cc1 (stereo not shown)
group 3

Looking at CCCCc1ccc(N=Nc2cc(C#N)c(N=Nc3cc(OC)c(N(CC(CC)CCCC)CC(CC)CCCC)cc3NC(=O)CC)s2)cc1 (stereo not shown) , which class would you pick?
group 2

Into which category would you place CCCCC(CC)CN(CC(CC)CCCC)c1ccc(/N=N/c2sc(N=Nc3ccc(C(=O)OCC(C)C)cc3)cc2C#N)c(C(C)C)c1 (stereo not shown) ?
group 1

====

assay: Solubility C (saturated concentration at 5° C.) of compound in low-polarity solvent and product εC; format: physicochemical; settings: n-decane, C at 5° C.
The following compounds are listed with their measured ε · C values.
Report the value in cm⁻¹ with no unit label.

Take a look at these entries with their results.
CCCCC(CC)CN(CC(CC)CCCC)c1cc(NC(C)=O)c(/N=N/c2nc(Cl)c(C=O)s2)cc1OC (stereo not shown)
3300
CCCCC(CC)COC(=O)c1ccc(N=Nc2cc(C#N)c(N=Nc3ccc(N(CC(CC)CCCC)CC(CC)CCCC)cc3C)s2)cc1 (stereo not shown)
7000
CCCCCc1ccc(N=Nc2cc(C#N)c(/N=N/c3cc(OC)c(N(CC(CC)CCCC)CC(CC)CCCC)cc3NC(C)=O)s2)cc1 (stereo not shown)
16000

I would be grateful if you could share the reported ε · C for CCCCc1ccc(N=Nc2cc(C#N)c(N=Nc3cc(OC)c(N(CC(CC)CCCC)CC(CC)CCCC)cc3NC(C)=O)s2)cc1 (stereo not shown) .
9900

====

compounds and their reported solubility at 24 h
test: Solubility C (saturated concentration at 5° C.) of compound in low-polarity solvent and product εC; assay type: physicochemical; settings: organic solvent or mixture, thermodynamic from solid; in Isopar M, at 5° C.
Value expressed in mM; do not type the unit.

CCCCC(CC)CNc1ccc(NCC(CC)CCCC)c2c1C(=O)c1ccccc1C2=O (stereo not drawn) [Comparative example compound 1, reference compound]
71

Query compound follows.
Could you share which solubility at 24 h value was measured for CCCCC(CC)CN(CC(CC)CCCC)c1cc(NC(C)=O)c(/N=N/c2nc(Cl)c(C=O)s2)cc1OC (stereo not drawn) [Compound 9] ?
34

====

assay: Solubility C (saturated concentration at 5° C.) of compound in low-polarity solvent and product εC; type: physicochemical; conditions: in tetradecane, at 5° C.
recorded-endpoint: Solubility (mM)
Supply the numeric figure in mM, leaving out any unit text.

Solved entries (count: 4):
CCCCC(CC)CN(CC(CC)CCCC)c1ccc(N=Nc2sc(N=Nc3ccc(C(=O)OCC(C)C)cc3)cc2C#N)c(CC)c1 (centres unmarked)
27
CCCCC(CC)COC(=O)c1ccc(N=Nc2cc(C#N)c(N=Nc3ccc(N(CC(CC)CCCC)CC(CC)CCCC)cc3C)s2)cc1 (centres unmarked)
140
CCCCC(CC)COC(=O)C(C#N)=Cc1sc(N=Nc2cc(OC)c(N(CC(CC)CCCC)CC(CC)CCCC)cc2NC(C)=O)nc1Cl (centres unmarked)
36
CCCCC(CC)COC(=O)c1ccc(N=Nc2cc(C#N)c(N=Nc3ccc(N(CC(CC)CCCC)CC(CC)CCCC)cc3NC(C)=O)s2)cc1 (centres unmarked)
44

Let us examine a further case.
What value of measured Solubility is listed for CCCCc1ccc(N=Nc2cc(C#N)c(N=Nc3cc(OC)c(N(CC(CC)CCCC)CC(CC)CCCC)cc3NC(C)=O)s2)cc1 (centres unmarked) ?
150

// provenance: patent US9200171B2
